test system: Bacillus subtilis PCI 219
metric_name: MIC (µg/mL)
Return type: number; implicit unit µg/mL.

Record CC(=O)[C@]1(O)Cc2cc3c(c(O)c2[C@@H](O[C@H]2C[C@H](N)[C@H](O)[C@H](C)O2)C1)C(=O)c1ccccc1C3=O (single isomer, unassigned; isomer 4) [4-Demethoxy-11-deoxy-daunomycin (7S,9S,1'α)isomer, 4-Demethoxy-11-deoxydaunomycin] / Bacillus subtilis PCI 219, MIC recorded as 3.12

Record C[C@@H]1O[C@@H](O[C@H]2C[C@](O)(C(=O)CO)Cc3cc4c(c(O)c32)C(=O)c2ccccc2C4=O)C[C@H](N)[C@@H]1O (single isomer, unassigned; isomer 4) [4-Demethoxy-11-deoxy-adriamycin (7S,9S,1'α)isomer, 4-Demethoxy-11-deoxyadriamycin] / Bacillus subtilis PCI 219, MIC recorded as 12.5

Record CC(=O)[C@@]1(O)Cc2cc3c(c(O)c2[C@H](O[C@H]2C[C@H](N)[C@H](O)[C@H](C)O2)C1)C(=O)c1ccccc1C3=O (single isomer, unassigned; isomer 4) [4-Demethoxy-11-deoxy-daunomycin (7R,9R,1'α)isomer, 4-Demethoxy-11-deoxydaunomycin] / Bacillus subtilis PCI 219, MIC recorded as 100

###

tested on: Bacillus subtilis NRRB- 558
Reported MIC is given for each of the following compounds.

C[C@@H]1O[C@@H](O[C@@H]2C[C@@](O)(C(=O)CO)Cc3cc4c(c(O)c32)C(=O)c2ccccc2C4=O)C[C@H](N)[C@@H]1O (single isomer, unassigned; isomer 4) [4-Demethoxy-11-deoxy-adriamycin (7R,9R,1'α)isomer, 4-Demethoxy-11-deoxyadriamycin] = > 100 µg/mL
C[C@@H]1O[C@@H](O[C@H]2C[C@](O)(C(=O)CO)Cc3cc4c(c(O)c32)C(=O)c2ccccc2C4=O)C[C@H](N)[C@@H]1O (single isomer, unassigned; isomer 4) [4-Demethoxy-11-deoxy-adriamycin (7S,9S,1'α)isomer, 4-Demethoxy-11-deoxyadriamycin] = 12.5 µg/mL
CC(=O)[C@@]1(O)Cc2cc3c(c(O)c2[C@H](O[C@H]2C[C@H](N)[C@H](O)[C@H](C)O2)C1)C(=O)c1ccccc1C3=O (single isomer, unassigned; isomer 4) [4-Demethoxy-11-deoxy-daunomycin (7R,9R,1'α)isomer, 4-Demethoxy-11-deoxydaunomycin] = 50 µg/mL

// switching to the query compound
Per the records, this compound ( CC(=O)[C@]1(O)Cc2cc3c(c(O)c2[C@@H](O[C@H]2C[C@H](N)[C@H](O)[C@H](C)O2)C1)C(=O)c1ccccc1C3=O (single isomer, unassigned; isomer 4) [4-Demethoxy-11-deoxy-daunomycin (7S,9S,1'α)isomer, 4-Demethoxy-11-deoxydaunomycin] ) has MIC equal to 6.25 µg/mL

###

Microccus flavus FDA 16: recorded MIC for assorted compounds
Return type: number; implicit unit µg/mL.

CC(=O)[C@]1(O)Cc2cc3c(c(O)c2[C@@H](O[C@H]2C[C@H](N)[C@H](O)[C@H](C)O2)C1)C(=O)c1ccccc1C3=O (single isomer, unassigned; isomer 4) [4-Demethoxy-11-deoxy-daunomycin (7S,9S,1'α)isomer, 4-Demethoxy-11-deoxydaunomycin] = 6.25

Per the records, this compound ( C[C@@H]1O[C@@H](O[C@H]2C[C@](O)(C(=O)CO)Cc3cc4c(c(O)c32)C(=O)c2ccccc2C4=O)C[C@H](N)[C@@H]1O (single isomer, unassigned; isomer 4) [4-Demethoxy-11-deoxy-adriamycin (7S,9S,1'α)isomer, 4-Demethoxy-11-deoxyadriamycin] ) has MIC equal to 50

###

Microccus lysodeikticus IFQ 3333: recorded MIC for assorted molecules
Return type: number; implicit unit µg/mL.

C[C@@H]1O[C@@H](O[C@H]2C[C@](O)(C(=O)CO)Cc3cc4c(c(O)c32)C(=O)c2ccccc2C4=O)C[C@H](N)[C@@H]1O (single isomer, unassigned; isomer 4) [4-Demethoxy-11-deoxy-adriamycin (7S,9S,1'α)isomer, 4-Demethoxy-11-deoxyadriamycin] = 50

Record CC(=O)[C@]1(O)Cc2cc3c(c(O)c2[C@@H](O[C@H]2C[C@H](N)[C@H](O)[C@H](C)O2)C1)C(=O)c1ccccc1C3=O (single isomer, unassigned; isomer 4) [4-Demethoxy-11-deoxy-daunomycin (7S,9S,1'α)isomer, 4-Demethoxy-11-deoxydaunomycin] / Microccus lysodeikticus IFQ 3333, MIC recorded as 12.5

###

tested on: L1210 leukemia cells; experiment: Antitumor activity on CDFI mouse leukemia induced by mouse L1210 leukemia cells; format: in vivo, CDFI mice; details: 0.15 mg/kg/day, intraperitoneal, 10 consecutive days
Reported Survival rate (T/C, %) is given for each of the following compounds.
Answer by giving the amount and then stating its unit.

Reference set (3 entries):
COc1cccc2c1C(=O)c1c(O)c3c(c(O)c1C2=O)C[C@@](O)(C(=O)CO)C[C@@H]3O[C@H]1C[C@H](N)[C@H](O)[C@H](C)O1 [Adriamycin] = 130%
CC(=O)[C@]1(O)Cc2cc3c(c(O)c2[C@@H](O[C@H]2C[C@H](N)[C@H](O)[C@H](C)O2)C1)C(=O)c1ccccc1C3=O (single isomer, unassigned; isomer 4) [4-Demethoxy-11-deoxy-daunomycin (7S,9S,1'α)isomer, 4-Demethoxy-11-deoxydaunomycin] = 103%
C[C@@H]1O[C@@H](O[C@H]2C[C@](O)(C(=O)CO)Cc3cc4c(c(O)c32)C(=O)c2ccccc2C4=O)C[C@H](N)[C@@H]1O (single isomer, unassigned; isomer 4) [4-Demethoxy-11-deoxy-adriamycin (7S,9S,1'α)isomer, 4-Demethoxy-11-deoxyadriamycin] = 135%

// switching to the query compound
Per the records, this compound ( COc1cccc2c1C(=O)c1c(O)c3c(c(O)c1C2=O)C[C@@](O)(C(C)=O)C[C@@H]3O[C@H]1C[C@H](N)[C@H](O)[C@H](C)O1 [Daunomycin, reference compound] ) has Survival rate (T/C, %) equal to 118%

###

Reported MIC is given for each of the following molecules.
system: Bacillus megatherium APF; assay: MIC on nutrient agar medium; assay type: cell-based
Return type: number; implicit unit µg/mL.

Per the records, this molecule ( CC(=O)[C@]1(O)Cc2cc3c(c(O)c2[C@@H](O[C@H]2C[C@H](N)[C@H](O)[C@H](C)O2)C1)C(=O)c1ccccc1C3=O (single isomer, unassigned; isomer 4) [4-Demethoxy-11-deoxy-daunomycin (7S,9S,1'α)isomer, 4-Demethoxy-11-deoxydaunomycin] ) has MIC equal to 6.25

Per the records, this molecule ( CC(=O)[C@@]1(O)Cc2cc3c(c(O)c2[C@H](O[C@H]2C[C@H](N)[C@H](O)[C@H](C)O2)C1)C(=O)c1ccccc1C3=O (single isomer, unassigned; isomer 4) [4-Demethoxy-11-deoxy-daunomycin (7R,9R,1'α)isomer, 4-Demethoxy-11-deoxydaunomycin] ) has MIC equal to 50

Per the records, this molecule ( C[C@@H]1O[C@@H](O[C@H]2C[C@](O)(C(=O)CO)Cc3cc4c(c(O)c32)C(=O)c2ccccc2C4=O)C[C@H](N)[C@@H]1O (single isomer, unassigned; isomer 4) [4-Demethoxy-11-deoxy-adriamycin (7S,9S,1'α)isomer, 4-Demethoxy-11-deoxyadriamycin] ) has MIC equal to 12.5

###

Candida albicans 3147: recorded MIC for assorted compounds

Reference set (3 entries):
C[C@@H]1O[C@@H](O[C@H]2C[C@](O)(C(=O)CO)Cc3cc4c(c(O)c32)C(=O)c2ccccc2C4=O)C[C@H](N)[C@@H]1O (single isomer, unassigned; isomer 4) [4-Demethoxy-11-deoxy-adriamycin (7S,9S,1'α)isomer, 4-Demethoxy-11-deoxyadriamycin] = > 100 µg/mL
CC(=O)[C@@]1(O)Cc2cc3c(c(O)c2[C@H](O[C@H]2C[C@H](N)[C@H](O)[C@H](C)O2)C1)C(=O)c1ccccc1C3=O (single isomer, unassigned; isomer 4) [4-Demethoxy-11-deoxy-daunomycin (7R,9R,1'α)isomer, 4-Demethoxy-11-deoxydaunomycin] = > 100 µg/mL
C[C@@H]1O[C@@H](O[C@@H]2C[C@@](O)(C(=O)CO)Cc3cc4c(c(O)c32)C(=O)c2ccccc2C4=O)C[C@H](N)[C@@H]1O (single isomer, unassigned; isomer 4) [4-Demethoxy-11-deoxy-adriamycin (7R,9R,1'α)isomer, 4-Demethoxy-11-deoxyadriamycin] = > 100 µg/mL

// switching to the query compound
Record CC(=O)[C@]1(O)Cc2cc3c(c(O)c2[C@@H](O[C@H]2C[C@H](N)[C@H](O)[C@H](C)O2)C1)C(=O)c1ccccc1C3=O (single isomer, unassigned; isomer 4) [4-Demethoxy-11-deoxy-daunomycin (7S,9S,1'α)isomer, 4-Demethoxy-11-deoxydaunomycin] / Candida albicans 3147, MIC recorded as 100 µg/mL
